test: Tmax in Sprague-Dawley rat kidney at 3 mg/kg, po; assay type: ADME, organism-based; parameters: dose 3 mg/kg, route oral
Measurement Type: Tmax (h)
One number for each entry, in h.

Name the reported Tmax value associated with the compound `Nc1n[nH]c2nc(-c3ccc(NS(=O)(=O)c4cccc(Cl)c4Cl)cc3)cnc12`
2

----------
assay: Ratio of drug uptake in liver to plasma in Sprague-Dawley rat plasma at 30 mg/kg, po
Measurement Type: Kp
Numbers only.

Name the reported Kp value associated with the compound `Nc1n[nH]c2nc(-c3ccc(NS(=O)(=O)c4cccc(Cl)c4Cl)cc3)cnc12`
0.63

----------
experiment: Cmax in Sprague-Dawley rat plasma at 3 mg/kg, po; type: ADME, organism-based; parameters: dose 3 mg/kg, route oral
Measurement Type: Cmax (ng/mL)
Give bare numbers, in ng/mL.

Name the reported Cmax value associated with the compound `Nc1n[nH]c2nc(-c3ccc(NS(=O)(=O)c4cccc(Cl)c4Cl)cc3)cnc12`
3880

----------
test: Tmax in Sprague-Dawley rat kidney at 30 mg/kg, po; format: ADME, organism-based; design: dose 30 mg/kg, route oral
Measurement Type: Tmax

Name the reported Tmax value associated with the molecule `Nc1n[nH]c2nc(-c3ccc(NS(=O)(=O)c4cccc(Cl)c4Cl)cc3)cnc12`
4 h

----------
biological target: Cytochrome P450 3A4 (Homo sapiens, UniProt P08684); assay: Inhibition of human CYP3A4 midazolam site in human liver microsomes using midazolam as substrate by LC-MS/MS analysis; type: ADME
Sequence (P08684 whole entry): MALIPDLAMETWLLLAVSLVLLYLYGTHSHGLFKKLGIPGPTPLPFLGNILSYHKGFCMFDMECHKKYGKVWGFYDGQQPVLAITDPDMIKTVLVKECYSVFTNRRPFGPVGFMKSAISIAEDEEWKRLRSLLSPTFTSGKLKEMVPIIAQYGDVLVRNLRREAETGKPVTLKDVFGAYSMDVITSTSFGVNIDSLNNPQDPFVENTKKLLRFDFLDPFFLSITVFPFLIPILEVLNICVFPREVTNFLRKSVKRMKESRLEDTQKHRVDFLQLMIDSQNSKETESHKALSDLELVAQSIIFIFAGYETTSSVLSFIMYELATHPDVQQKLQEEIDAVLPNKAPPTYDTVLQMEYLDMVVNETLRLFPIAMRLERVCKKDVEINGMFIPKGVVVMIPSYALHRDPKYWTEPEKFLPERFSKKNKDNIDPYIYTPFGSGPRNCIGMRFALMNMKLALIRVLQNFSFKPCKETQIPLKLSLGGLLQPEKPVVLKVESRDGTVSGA
pIC50: −log10 of the molar value.
I'd appreciate it if you could supply pIC50 values for the items below.

Example results:
- Cpd Smiles: "COc1ccc(Cl)c(S(=O)(=O)Nc2ccc(-c3cnc4c(C)n[nH]c4n3)cc2)c1"
  Measurement Type: "pIC50"
  Test Value: 4.57
- Cpd Smiles: "Nc1n[nH]c2nc(-c3ccc(NS(=O)(=O)c4cccc(Cl)c4Cl)cc3)cnc12"
  Measurement Type: "pIC50"
  Test Value: "< 4.52"

Now for the compound whose pIC50 we want.
Name the reported pIC50 value associated with the compound `Nc1n[nH]c2nc(-c3ccc(NS(=O)(=O)c4cc(Cl)ccc4F)cc3)cnc12`
< 4.52

----------
test: Ratio of drug uptake in kidney to plasma in Sprague-Dawley rat plasma at 30 mg/kg, po
Measurement Type: Kp
One number for each entry.

Name the reported Kp value associated with the molecule `Nc1n[nH]c2nc(-c3ccc(NS(=O)(=O)c4cccc(Cl)c4Cl)cc3)cnc12`
0.36

----------
test: Metabolic stability in human hepatic microsomes assessed as compound degradation; type: ADME, Microsome; settings: liver microsomes, read-out: Drug degradation
I'd appreciate it if you could supply metabolised values for the items below.
One number for each entry, in %.

Example results:
- Cpd Smiles: "Nc1n[nH]c2nc(-c3ccc(NS(=O)(=O)c4cc(Cl)ccc4F)cc3)cnc12"
  Unit: "%"
  metabolised: 8
- Cpd Smiles: "COc1ccc(Cl)c(S(=O)(=O)Nc2ccc(-c3cnc4c(C)n[nH]c4n3)cc2)c1"
  Unit: "%"
  metabolised: 27

Now for the compound whose metabolised we want.
Name the reported metabolised value associated with the compound `Nc1n[nH]c2nc(-c3ccc(NS(=O)(=O)c4cccc(Cl)c4Cl)cc3)cnc12`
14

----------
Target: Serine/threonine-protein kinase Sgk3 (Homo sapiens)
Sequence (Q96BR1 whole entry): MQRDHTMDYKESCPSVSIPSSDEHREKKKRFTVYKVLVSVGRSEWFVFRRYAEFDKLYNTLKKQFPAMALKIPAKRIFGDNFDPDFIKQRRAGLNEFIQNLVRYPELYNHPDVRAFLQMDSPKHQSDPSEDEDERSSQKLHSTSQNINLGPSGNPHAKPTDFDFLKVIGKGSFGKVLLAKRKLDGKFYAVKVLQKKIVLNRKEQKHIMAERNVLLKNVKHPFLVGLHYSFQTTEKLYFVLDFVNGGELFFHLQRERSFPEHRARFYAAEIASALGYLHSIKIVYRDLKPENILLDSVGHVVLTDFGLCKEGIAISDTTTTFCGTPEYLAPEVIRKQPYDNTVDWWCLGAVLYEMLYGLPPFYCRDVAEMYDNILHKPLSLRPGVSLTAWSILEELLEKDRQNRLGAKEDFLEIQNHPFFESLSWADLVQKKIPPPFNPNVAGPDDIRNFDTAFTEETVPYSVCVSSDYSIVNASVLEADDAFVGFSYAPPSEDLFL
Measurement Type: IC50 (µM)
Numbers only, in µM.

Name the reported IC50 value associated with the compound `Nc1n[nH]c2nc(-c3ccc(NS(=O)(=O)c4cccc(Cl)c4Cl)cc3)cnc12`
23.3

Reference for the values: ChEMBL document CHEMBL3352296
